tested on: HOP-92 NSCLC; test: NCI tumour cell line growth inhibition, 48 h
// label = label 1 if TGI is not less than 20 µM, otherwise label 0

Observe how each entry below is paired with its result.
| molecule | experimental_system | class_label |
| --- | --- | --- |
| N#CC1(C#N)C2CCCCC23OC(=N)C1(C#N)C(c1ccccc1)O3 (stereo not given) | HOP-92 NSCLC | label 1 |
| O=C(N/N=C1/C(=O)N(c2ccc(Cl)cc2Cl)C(=O)C(=O)C1c1nc2ccccc2o1)c1ccccc1O (stereo not given) | HOP-92 NSCLC | label 1 |
| CCOc1ccc2c(c1)[n+]([O-])c(-c1ccccc1Cl)c(N)[n+]2[O-] | HOP-92 NSCLC | label 1 |
| CCOC(=O)C(=Cc1cccc(Cl)c1)C(=O)OCC | HOP-92 NSCLC | label 0 |
| CC(CCC#N)(CCC#N)C(=O)CC(O)(C(F)(F)F)C(F)(F)F | HOP-92 NSCLC | label 0 |
| CCOC(=O)C1(c2ccccc2)CCC(=O)CC1 | HOP-92 NSCLC | label 1 |

Q) Please tell me: is the molecule Nc1c(C(=O)Nc2cccc(Br)c2)sc2nc3c(cc12)C(=O)CCC3 at or over 20 µM in terms of TGI?
A) label 1

Q) Please tell me: is the molecule Cc1cn(CCCCCOC(=O)NC(CCCN=C(N)N)C(=O)O)c(=O)[nH]c1=O (stereo not given) at or over 20 µM in terms of TGI?
A) label 1

Q) Please tell me: is the molecule O=[N+]([O-])c1cc2c(c3nonc13)OCCCCO2 at or over 20 µM in terms of TGI?
A) label 1

Q) Please tell me: is the molecule CC1(C)OCCn2c1nc1c(N3CCOCC3)nc(-c3cnc(N)nc3)nc12 at or over 20 µM in terms of TGI?
A) label 0

Sourced from PubChem BioAssay (NCI)
